Known RP-LC retention time of a selection of molecules
# procedure details: gradient 5% acetonitrile 3 min, to 50% in 2 min, to 85% in 15 min, held 3 min, 100 µL/min
# stated conditions: column: Zorbax Extend-C18 2.1 x 50 mm; eluents: water / acetonitrile, 0.1% formic acid
assay metric: RP-LC retention time (s)

molecule: Cc1ccnc(N2CCCC(C(=O)NCC3CCN(Cc4cccc(F)c4)CC3)C2)n1 (centres undefined)
quantitative result: 579

molecule: O=C1COc2ccc(S(=O)(=O)N3CCCC3C(=O)N3CCN(c4ccccc4F)CC3)cc2N1 (centres undefined)
quantitative result: 790

molecule: Cc1ccc(Cc2nc(-c3ccnc(N4CCOCC4)c3)no2)cc1
quantitative result: 908

molecule: CC(NC(=O)CC1CCCCC1)C(=O)Nc1nc2ccccc2[nH]1 (centres undefined)
quantitative result: 663

---

# procedure details: gradient 5% acetonitrile 3 min, to 50% in 2 min, to 85% in 15 min, held 3 min, 100 µL/min
# stated conditions: column: Zorbax Extend-C18 2.1 x 50 mm; eluents: water / acetonitrile, 0.1% formic acid
Known RP-LC retention time of a selection of molecules
assay metric: RP-LC retention time (s)

molecule: CC(=O)N1CCCSc2ccc(S(=O)(=O)N3CCC(CN4CCc5ccccc5C4)CC3)cc21
quantitative result: 671
--
molecule: CS(=O)(=O)N1CCCc2cc(C(=O)NCc3cccnc3)ccc21
quantitative result: 574
--
molecule: O=C(NCc1ccccc1)C1=Cc2ccccc2OC=C1
quantitative result: 933
--
molecule: CC1(C)[C@@H]2CC[C@@]1(C(=O)O)C(=O)C2
quantitative result: 717
--
molecule: CCCCOc1ccc(NC(=O)c2cc(=O)c3cc(CC)ccc3o2)c2cccnc12
quantitative result: 786
--
molecule: COc1ccc(NC(=O)N2CC(N(C(=O)NC(C)C)C3CCOCC3)C2)cc1OC
quantitative result: 598
--
molecule: CNC(=O)C1CCCN(c2nc3ncn(CC(=O)Nc4cccc(C(C)C)c4)c(=O)c3s2)C1 (configuration not stated)
quantitative result: 711
--
molecule: Cc1ccc2nc(-c3ccc(N(C)C)cc3)c(Nc3ccccc3C)n2c1
quantitative result: 812
--
molecule: O=C(NC1CC1)C1CCCN(S(=O)(=O)c2c[nH]c(C(=O)N3CCCC3)c2)C1 (configuration not stated)
quantitative result: 627
--
molecule: COCc1cc(=O)n(CC(=O)Nc2ccccc2F)c(N2CCOCC2)n1
quantitative result: 789
--
molecule: CC(C)N1CCN(C(=O)c2csc(N3CCN(c4ccc(Cl)cc4)CC3)n2)CC1
quantitative result: 706
--
molecule: COc1ccc(-c2ccc(C(=O)N3CCCc4ccccc43)o2)c([N+](=O)[O-])c1
quantitative result: 976
--
molecule: CC(C)N1Cc2cc(C(=O)N3CCC(Cc4ccccc4)CC3)sc2C1
quantitative result: 949
--
molecule: CC(C)N1C(=O)Cc2ccccc2C1C(=O)N1CCN(c2ccccc2)CC1 (configuration not stated)
quantitative result: 855
--
molecule: CCc1ccc(S(=O)(=O)NCCOc2ccc(-c3ccco3)nn2)s1
quantitative result: 804
--
molecule: Cn1ccnc1SCC(=O)Nc1nc(-c2ccc(F)cc2)cs1
quantitative result: 639
--
molecule: O=C(O)CCC1(c2ccccc2)NC(=O)NC1=O (configuration not stated)
quantitative result: 651

---

Known RP-LC retention time of a selection of compounds
# procedure details: gradient 5% acetonitrile 3 min, to 50% in 2 min, to 85% in 15 min, held 3 min, 100 µL/min
# stated conditions: column: Zorbax Extend-C18 2.1 x 50 mm; eluents: water / acetonitrile, 0.1% formic acid

substance smiles: COc1cccc(Cn2cc(S(=O)(=O)N3CCCCCC3)ccc2=O)c1
RP-LC retention time: 895 s
--
substance smiles: O=C(NCc1ccco1)c1c2c(nc3ccccc13)C(=O)N(C1CCCCC1)C2
RP-LC retention time: 808 s
--
substance smiles: CN1c2ccccc2Oc2nnc(N3CCN(c4ccccn4)CC3)cc21
RP-LC retention time: 550 s
--
substance smiles: Cn1ncc(NC(=O)c2ccc(Br)cc2)c(N2CCOCC2)c1=O
RP-LC retention time: 814 s
--
substance smiles: Cn1nc(-c2nc(C3CC3)no2)c2c1CCN(C(=O)c1ccc(OC(F)(F)F)cc1)C2
RP-LC retention time: 937 s
--
substance smiles: O=C(c1cnccn1)N1CC(c2nc(-c3cccs3)no2)C1
RP-LC retention time: 693 s

---

# procedure details: gradient 5% acetonitrile 3 min, to 50% in 2 min, to 85% in 15 min, held 3 min, 100 µL/min
# stated conditions: column: Zorbax Extend-C18 2.1 x 50 mm; eluents: water / acetonitrile, 0.1% formic acid
assay metric: RP-LC retention time (s)

molecule: Cc1ccccc1S(=O)(=O)N1CCC2(CC1)CC(C)(O)CCO2 (stereo not drawn)
quantitative result: 778
//
molecule: O=C(Nc1ccc2c(c1)OCO2)C1CC(=O)N(CCc2c[nH]c3ccc(Cl)cc23)C1 (stereo not drawn)
quantitative result: 801
//
molecule: Cc1cccc(N2C(=O)CN(Cc3ccc(F)cc3)[C@H]3CS(=O)(=O)C[C@H]32)c1
quantitative result: 812

---

# procedure details: gradient 5% acetonitrile 3 min, to 50% in 2 min, to 85% in 15 min, held 3 min, 100 µL/min
# stated conditions: column: Zorbax Extend-C18 2.1 x 50 mm; eluents: water / acetonitrile, 0.1% formic acid
Known RP-LC retention time of a selection of compounds

compound: Cc1cccc(S(=O)(=O)N2CC3CN(C(=O)C4CCCCC4)CC(C2)O3)c1
units of measure: s
RP-LC retention time: 865

compound: CCCC(=O)N1CCc2c(c(-c3nnc(SC)n3CC)nn2C)C1
units of measure: s
RP-LC retention time: 705

compound: Cc1ccc(N2C(=O)c3ccc(C(=O)N4CCN(c5ccccc5F)CC4)cc3C2=O)cc1
units of measure: s
RP-LC retention time: 982

compound: CC1CCCN(C(=O)c2cn(-c3cc(-c4nc(C(C)C)no4)ccn3)cn2)C1 (centres undefined)
units of measure: s
RP-LC retention time: 955

---

Known RP-LC retention time of a selection of molecules
# procedure details: gradient 5% acetonitrile 3 min, to 50% in 2 min, to 85% in 15 min, held 3 min, 100 µL/min
# stated conditions: column: Zorbax Extend-C18 2.1 x 50 mm; eluents: water / acetonitrile, 0.1% formic acid

molecule: COc1ccc(OC)c(CNC(=O)c2cnc(OC)nc2)c1
RP-LC retention time, s: 700
//
molecule: O=C(O)c1cc(-c2ccc(Br)s2)nc2ccccc12
RP-LC retention time, s: 1110
//
molecule: CCCNC(=O)C1CCCN(c2ccc(SCC(=O)Nc3cccc(C)c3C)nn2)C1 (centres undefined)
RP-LC retention time, s: 665
//
molecule: Cc1cc(C)c2c(N)c(C(=O)Nc3cccc4cccnc34)sc2n1
RP-LC retention time, s: 1080
//
molecule: Cc1ccc(CN2CCCn3nc(C(=O)NCc4ccco4)cc3C2=O)cc1
RP-LC retention time, s: 804
//
molecule: COc1ccc(C(F)(F)F)cc1NC(=O)CCCSc1ccc(NC(C)=O)nn1
RP-LC retention time, s: 785
//
molecule: O=C1CC(c2noc(C3CCC3)n2)CN1c1ccccc1 (centres undefined)
RP-LC retention time, s: 869
//
molecule: Cc1cc(NS(=O)(=O)c2cc(-c3[nH]ncc3C(=O)N(C)C)oc2C)ccc1F
RP-LC retention time, s: 699
//
molecule: Cc1occc1C(=O)N[C@@H]1CN(c2ncccn2)C[C@H]1CO
RP-LC retention time, s: 597
//
molecule: Cc1ccc(-c2cc3c4nnc(CCC(=O)NC5CCCCCC5)n4ccn3n2)cc1C
RP-LC retention time, s: 587
//
molecule: O=C(NC1CC1)c1ccc(OCC2CCCN2C(=O)c2ccccc2C(F)(F)F)cc1 (centres undefined)
RP-LC retention time, s: 832
//
molecule: O=C(CCn1c(CO)nc2ccccc21)c1ccccc1
RP-LC retention time, s: 578
//
molecule: COc1ccc(C(=S)N2CCN(c3ccccc3C)CC2)cc1
RP-LC retention time, s: 1260
//
molecule: CCN1CCN(c2cc(C)c3cc(NC(=S)N4CCN(c5ccccc5)CC4)ccc3n2)CC1
RP-LC retention time, s: 603

---

# procedure details: gradient 5% acetonitrile 3 min, to 50% in 2 min, to 85% in 15 min, held 3 min, 100 µL/min
# stated conditions: column: Zorbax Extend-C18 2.1 x 50 mm; eluents: water / acetonitrile, 0.1% formic acid

compound: CCNC(=O)N1CCCC1c1nc(-c2ccccc2OC)no1 (configuration not stated)
RP-LC retention time: 698 s
//
compound: CCc1ccc(C(C)NC(=O)c2ccc3[nH]cc(C(=O)C(=O)N4CCCCCC4)c3c2)cc1 (configuration not stated)
RP-LC retention time: 936 s
//
compound: O=C(CCS(=O)(=O)c1ccccc1)Nc1cc(-c2ccco2)nn1CCO
RP-LC retention time: 643 s
//
compound: O=C(Nc1ccc(F)cc1)N1CCC(CCOc2ccncc2)CC1
RP-LC retention time: 616 s
//
compound: COc1ccc(N2C(=O)C3N=NN(Cc4nc(-c5ccc(C)cc5)no4)C3C2=O)cc1 (configuration not stated)
RP-LC retention time: 992 s
//
compound: CCCCN1C(=O)CN(S(=O)(=O)c2ccc(C)cc2)CC1(C)C(=O)NCc1ccccc1 (configuration not stated)
RP-LC retention time: 974 s
//
compound: CCOc1ccc(-c2csc3c(=O)n(Cc4ccncc4)cnc23)cc1OCC
RP-LC retention time: 693 s
//
compound: C[C@]12CCC3[C@@H](CC[C@@H]4C[C@H](O)CC[C@]34C)[C@@H]1CCC2=O (some centres not stated)
RP-LC retention time: 992 s
//
compound: COc1ccc2c(c1)C1(CCN(C(=O)c3ccccc3C(F)(F)F)C1)C(=O)N2 (configuration not stated)
RP-LC retention time: 714 s
//
compound: CCc1nnc(-c2ccc3ccn(CC(=O)NCc4ccc(F)cc4)c3c2)o1
RP-LC retention time: 801 s
//
compound: C[C@H]1CN(C(=O)Nc2ccc(Cl)cc2)C[C@@H]1c1nc(-c2cccnc2)no1
RP-LC retention time: 863 s
//
compound: CCOc1ccc(NC(=O)C2CCCN(c3ncnc4c3oc3ccccc34)C2)cc1 (configuration not stated)
RP-LC retention time: 816 s
